- assay.name: yeast display, Sf9 membrane polyspecificity reagent, FACS + sequencing; frameworks hold sequencing errors
property.name: polyreactivity (PSR sort gate)

Field: example entries. Status: answers known.
- QLQLVESGGGLVQAGGSLRLSCAPSGRILWVNAMGWYRQAPGKERELVAAISLSGGRTYYADSVKGRFTISRDNAKNTVYLQMNSLKPEDTAVYYCAARTVNYYYTTGDYWGQGTQVTVSS: low polyreactivity
- QDHLVESGEGLVQAGGSLRLSCAASGFVFAYYTMGWYRTAPGKERELVAAISRGGGRTYYADSVKGRFTISRDNAKNTVYLQMNSLKPEDTAVYYCAARNGPSIKFAVTGMDYWGQGTQVTVSS: high polyreactivity
- QVQLVESGGGLVQAGGSLRLSCAASGRTFWIYGMGWYRQAPGKERELVAAITRSGGSTNYADSVKGRFTISRDNAKNTVYLQMKSLKPEDTAVYYCAADTWYPGYYAYDYWGQGTQVTVSS: high polyreactivity
- QVQLEESGGGLVQAGGSLRISCAASVRILSWYAIGWYRQAPGKERELVAAISVRGSTYYADSVKGRFTISRDNAKNTVYLQMNSLKPDDTAVYYSNRVWLQASTTIVVSSRRLYYWGLGTQVTVSS: high polyreactivity
- QVQLVESGGGLVQAGGSLRLSCAASGSTSLYYAMGWYRQAPGKEREFVAAITWSGGSTYYADSVKGRFTISRDNAKNTVYLQMNSLKPEDTAVYYCAARSYGYSAGYYWGQGTQVTVSS: high polyreactivity

query: Identify polyreactivity (PSR sort gate) associated with the sequence `QVQLVESGGGLVQAGGSLRLSCADSGSTFVSYAMGWYRQAPGKERELVAVAISWSGGNTYYADSVKGRFTISRDNAKNTVYLQMNSLKPEDTAVYYCAAYGTTGVYRGPGYDYWGQGTQVTVSS`
result: low polyreactivity

query: Identify polyreactivity (PSR sort gate) associated with the sequence `QVQLVESGGGLVQAGGSLRLSCAASGSTLRYNTMGWYRQAPGTERELVAAIRGSGSSTYYADSVKGRFTISRDNAKNTVYLQMNSLKPEDTAVYYCAARPRWYTYTRQEYDYWGQGTQVTVSS`
result: high polyreactivity

query: Identify polyreactivity (PSR sort gate) associated with the sequence `QVQLVESGGGLVQAGGSLRLSCAASGITFFGYAMGWYRQAPGKERELVAGISRSTGRTYYADSVMGRFTISRDNAKYTVYLQMNSLKPEDTAVYYCDARATRSLSRYMDYWGQGTQVTVSS`
result: high polyreactivity

query: Identify polyreactivity (PSR sort gate) associated with the sequence `QVQLVESGGGLVQAGGSLRLSCAASGIIFGDNAMGWYRQATGKERELVAAIDYGDGSTYYADSVKGRFTISRDNENNTVYLQMNRLKPEDTAVYYCNADDGGPGVVLPTKEYDYWGQGTQVTVSS`
result: low polyreactivity

query: Identify polyreactivity (PSR sort gate) associated with the sequence `QVELVESGGGLVQAGGSLRLSCAASGFIFEKYTMGWYRQATGKETELVADITWNGGSTYYADSVKGRFTISRDNAKNTVYLQMNSLKPEDNAVYYCAARVGWNQRRYDYWGQGTQVTVSS`
result: low polyreactivity

query: Identify polyreactivity (PSR sort gate) associated with the sequence `QVQLVESGGGLVQAGGSLRLSCAASGSIFSHYAMGWYRQAPGKERELVARITWGGGSTYADCVKGRFTISRDNAKNTVYLQMKSLKPEDTAVYYCAAVPVGYDSDWGYYYWGQGTQVTVSS`
result: low polyreactivity

====

- assay.name: yeast display, Sf9 membrane polyspecificity reagent, FACS + sequencing; frameworks hold sequencing errors
property.name: polyreactivity (PSR sort gate)

Field: example entries. Status: answers known.
• QVQLVESGGGLVQAGGSHRLSCAASGFIFGRNAMGWYRQATGKDRELVDANTRSGGSTYYADSVKGRFTISRDNAKNTVYLQLYSLKPEDTAVYYCAKGLFTWGVFRVGIRDDYWGQGTQVTVSS = high polyreactivity
• QVQLVESGGGLVQAGGSLRLSCAASGSTFVVNAMGWYRQAPGKERELVAAITQSGGSTFYADSVKGRFTISRDNAKNTVYLQMNSLKPEDTAVYYWGLGTQVTVSS = low polyreactivity
• QVQLVESGGGLVQAGGSLRLSCASSGITFVRYAMAWYRPAPGKERELVAVISRGGITNYADSVKGRFTISRDNAKNTVYFQMNSLKPEDTGVYYCNREKRIRSSGGLYYWGQGTQVSVSS = high polyreactivity
• QVQLVESGGGLVQAGGSLRLSCAASGRTFNAYTMGWYRQAPGKERELVAAITRSGARTYYADSVKGRFTISRDNAKNTVYLQMNSLKPEDTAVYYCNKAAFNYYLYGYWGQGTQVTVSS = high polyreactivity
• QVQLVESGGGLVQAGGSLRLSCAASGSTFPPNPMGWYRKATGKERELVSSIRRGGSTHYADSVKGRFTISRDNEKNTVYLQMNSLKPEDTAVYYCAKDVWRHYLNLYDYWGQGTQVTVSS = low polyreactivity

query: Identify polyreactivity (PSR sort gate) associated with the sequence `QVQLVESGGGLVQAGCSLRLSSAASGSIFWVNAMGWYRQAPGQERELVAAITWSAGSTYYADSVKGRFTISRDNAKYTVYVEMNSLKPEDTAVYYCAAGGAWYYWTLDYWGLGTQVTVSS`
result: low polyreactivity

query: Identify polyreactivity (PSR sort gate) associated with the sequence `QVQLVESGGGLLQAGGSLRLSCAASGITFRFYAMGGYRQAPGKEREFVAAISCRGGRTYYADSVKGRFTISRDNAKNTVYIQMNSLKPEDTAVYYCAADFYYRTVATVTSVARYDYWGQGTQVTVSS`
result: high polyreactivity

query: Identify polyreactivity (PSR sort gate) associated with the sequence `QVQLVESGGGLDQAGGSLRLSFAASGSTFVPNVMGWYRQAPGKERELVASITSGGITNYADSVKGRFTISRDNAKNTVYLQMNSLKPEDTAVKGDYWGQGTQVTVSS`
result: low polyreactivity

query: Identify polyreactivity (PSR sort gate) associated with the sequence `QVQLVESGGGLVQAGGSLRLSCAASGSTFVPYTMGWYRQAPGKERELVAVITSGGSTNYADSVKGRFTISRDNAKNTVYLQMNSLKPEDTAVYYCAAYGGTHYTYRYDYWGQGTQVTVSS`
result: high polyreactivity

query: Identify polyreactivity (PSR sort gate) associated with the sequence `QVQLVESGGGLVQAGGSLRLSCAASGITFRRYAMGWYRPAPGKERELVASISRGGSTYYADSVKGRFTISRDNAKNTVYLQMNSLTPEDTAVYYCAADVAGRYDYWGQGTQVTVSS`
result: high polyreactivity

====

- assay.name: yeast display, Sf9 membrane polyspecificity reagent, FACS + sequencing; frameworks hold sequencing errors
property.name: polyreactivity (PSR sort gate)

Field: example entries. Status: answers known.
* QVQLVESGGGLVQAGGSLRLSCAASGRIFILNTMGWYRQAPGKERELLAGISYSGSTYYADSVKGRFTISRDNAKNTVYLQMNSLKPDDTAVYYCAADYDAAWYNDGYYYWGQGTQVTVSS | low polyreactivity
* QDQLVETGLGLVQAGGSLRLSLAASGRTFSYAKAWYRQEPGKERELVAAITKRGGSTNFADSVKGRFTISRDNAKNTVYLQMNSLKPEDTAVYYCATDPYHGSYLTYGRMDYWGQGTQVTVSS | high polyreactivity
* QFQLVDSGGGLVQAGGSLRLSCAASGRTFWFYGMGWYRQAPGKEREFVARISGSGGSKYYADSVKGRFTITRDNAKNTVYFQMNSLKPEDTAVYYCAKDNRYPYPSGLDYWGQGTQVTVSS | high polyreactivity
* QVHLVESGGGLVQAGGSLRLTCAASGITLDGNAMGWYRQAPGKERELVAAITSGGGTNYADSVKGRFTISRDNAKNTVYLQMNSLKPVDTAVYYCCADKPNDGVGRLYDYWGQGTQVTVSS | low polyreactivity
* QVQLVESGGGLVQAGGSLRLSCAASGRIYPYYAMGWYRQAPGKERELVAAITTRGGSTYYADSVKGRFTISRDNAKNTVYLQMNSLKPEDTAVYYCAAVTFGRMEYWGQGTQVTVSS | low polyreactivity
* QVQLVESGGGLVQAGGSLRLSCAASGRIFRDNAMGWYRQAPGKEREFVARITISTGTTYYADSVKGRFTISRDNAKNTVYLQMNSLKPEDTAVYYCAALYTVSYLTSPVSYRYDYWGQGTQVTVSS | low polyreactivity
* QVQLVESGGGLVQAGGSLRLSCAASGSIFVYYAMGWYRQAPGKERELGAAISSTGGRTYYADSVKGRFTISRDNAKNTVYLQMNSLKPEDTAVYYCAKTPTVVEFDYWGQGTQVTVAS | low polyreactivity
* QVQLGESGGGLVQAGGSLRLSCAASGYIFRVYAMGWYIQARGKERDFVAAITRGGRTNYADSVKGRFTISRDNAKNTVYLQMNSLKQEDTAVYYCAASFSAIRGGVRVTIDYYWGQGTQVTVSS | high polyreactivity
* QVQLVESGGGLVQAGGSLRLSCAASGSTFKIYAMGWYRQAPGKERELVASIRGRGGSTYYADSVKGRFTISRDNAKNTVYLQLNSLKPEDTAVYYCNATYGHRYAPGISYDYWGQGSQVTVSS | high polyreactivity
* QVQLVESGGGIVQAGGSLRLSCAATGRIFTGYTMGWYRQAPGKERELVAAISQSGGRTYYADSVKGRFTISRDNAKHTVYLQMNSLKPEDTAVYYCAAVWSRTGYDYCGQGTQVTVSS | high polyreactivity

# ---- query sequence ----
query: Identify polyreactivity (PSR sort gate) associated with the sequence `QVQLVESGGGLVQAGGSLRLSCAASGGIFEYYAMGWYRQAPGKERELVAAINTGGNTYYADSVKGRFTISRDNAKNTVYLQMNSLKPEDTAVYYCATDPIWYGGYLSGTDYDYWGQGTQVTVSS`
result: low polyreactivity
